I'd appreciate it if you could supply pEC50 values for the items below.
system: HT-22 cells (immortalized hippocampal neurons); assay: HT-22 Cell Neuroprotection Assay (glutamate insult, calcein AM viability); format: cell-based, murine; settings: 10 mM glutamate co-administered, ~16 h, read-out: Sterioid concentration needed to protect 50% of neurons killed by 10 mM Glutamate ED50
One number for each entry, as −log10 of the molar value.

As a guide, the following entries are already answered.
[[record]]
molecule = "C[C@]12CC[C@@H]3c4ccc(O)cc4CC[C@H]3[C@@H]1CC[C@H]2O"
system_name = "HT-22 cells (immortalized hippocampal neurons)"
measurement_type = "pEC50"
numeric_result = 5.51

[[record]]
molecule = "C[C@@]12CC[C@H]3c4ccc(O)cc4CC[C@@H]3[C@H]1CC[C@H]2O (single isomer, unassigned; ent-17)"
system_name = "HT-22 cells (immortalized hippocampal neurons)"
measurement_type = "pEC50"
numeric_result = 5.97

[[record]]
molecule = "C[C@]12CC[C@@H]3c4ccc(O)cc4CC[C@H]3[C@@H]1CC[C@@H]2O"
system_name = "HT-22 cells (immortalized hippocampal neurons)"
measurement_type = "pEC50"
numeric_result = 5.66

[[record]]
molecule = "CC(C)(C)c1cc2c(cc1O)CCC1C2CCC2(C)C(O)CCC12 (centres unmarked)"
system_name = "HT-22 cells (immortalized hippocampal neurons)"
measurement_type = "pEC50"
numeric_result = 6.62


Consider CC12CCC3c4cc(C56CC7CC(CC(C7)C5)C6)c(O)cc4CCC3C1CCC2O (centres unmarked) . Its measured pEC50 is 7.19

Where these numbers come from: patent US20060009438A2
